Entry source: patent US20220119540A1

Biological target: T1, Recombinant human OX40-His protein (human, UniProt P43489 29-214, limits assumed)
T1 construct: Recombinant antigen protein; also called recombinant human OX-40 protein; human OX-40 protein; not shown: His tag
T1 sequence (looked up): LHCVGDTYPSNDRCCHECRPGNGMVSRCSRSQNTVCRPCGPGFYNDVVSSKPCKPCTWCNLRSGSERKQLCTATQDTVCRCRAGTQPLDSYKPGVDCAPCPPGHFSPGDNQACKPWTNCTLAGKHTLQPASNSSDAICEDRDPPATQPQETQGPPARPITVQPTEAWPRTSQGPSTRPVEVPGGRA
Test: ELISA, plate coated with recombinant human OX-40 protein, antibody titrated
property name: EC50

binder	measured result
AH02919 humanized anti-human OX40 monoclonal antibody (recombinant human IgG1/kappa) (antibody, V domains shown) VH: QVQLVQSGAEVKKPGASVKVSCKASGYTFTDYSMHWVKQAPGQGLEWMGWISTETGEPTYADDFKGRVTITRDTSASTAYLEISSLRSEDTAVYFCARVRPWYLAVWGQGTLVTVSS VL: DIQMTQSPSSLSASVGDRVTITCRASQDISNYLNWYQQKPGKAVKLLIYYTSRLYSGVPSRFSGSGSGTDYTLTISSLQPEDIATYYCQQANTLPLTFGGGTKLEIK	0.0143 µg/mL
AH02923 humanized anti-human OX40 monoclonal antibody (recombinant human IgG1/kappa) (antibody, V domains shown) VH: QVQLVQSGAEVKKPGASVKVSCKASGYTFTDYSMHWVRQAPGQGLEWMGWISTETGEPTYADDFKGRFTFTLDTSASTAYLELSSLRSEDTAVYYCARVRPWYLAVWGQGTLVTVSS VL: DIQMTQSPSSLSASVGDRVTITCRASQDISNYLNWYQQKPGKAVKLLIYYTSRLYSGVPSRFSGSGSGTDYTFTISSLQPEDIATYYCQQANTLPLTFGGGTKLEIK	0.0107 µg/mL
AH02921 humanized anti-human OX40 monoclonal antibody (recombinant human IgG1/kappa) (antibody, V domains shown) VH: QVQLVQSGPEVKKPGASVKVSCKASGYTFTDYSMHWVRQAPGQGLEWMGWISTETGEPTYADDFKGRFTITLDTSASTAYLEISSLRSEDTAVYFCARVRPWYLTVWGQGTLVTVSS VL: DIQMTQSPSSLSASVGDRVTITCRASQDISNYLNWYQQKPGKAPKLLIYYTSRLYSGVPSRFSGSGSGTDYTLTISSLQPEDIATYFCQQANTLPLTFGGGTKLEIK	0.0161 µg/mL

Answer for every listed entry: what is its EC50? The entries follow.
1. Chimeric antibody (anti-human OX40, recombinant, human IgG1/kappa constant regions) (antibody, V domains shown) VH: QIQLVQSGPELKKPGETVKISCKASGYTFTDYSMHWVKQAPGKGLKWMGWISTETGEPTYADDFKGRFAFSLETSASTAYLQIKNLKNEDTASYFCARVRPWYLAVWGAGTTVTVSS VL: DIQMTQTTSSLSASLGDRVTISCRASQDISNYLNWYQQKPDGTVKLLIYYTSRLYSGVPSRFSGSGSGADYSLTVSNLEQEDIATYFCQQANTLPLTFGAGTKLELK
2. AH02913 humanized anti-human OX40 monoclonal antibody (recombinant human IgG1/kappa) (antibody, V domains shown) VH: QVQLVQSGPEVKKPGASVKVSCKASGYTFTDYSMHWVKQAPGQGLEWMGWISTETGEPTYADDFKGRVTITLDTSASTAYMELSSLRSEDTAVYFCARVRPWYLAVWGQGTLVTVSS VL: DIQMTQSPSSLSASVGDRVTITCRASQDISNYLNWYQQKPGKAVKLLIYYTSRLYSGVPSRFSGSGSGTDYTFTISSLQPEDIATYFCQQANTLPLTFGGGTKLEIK
3. AH02916 humanized anti-human OX40 monoclonal antibody (recombinant human IgG1/kappa) (antibody, V domains shown) VH: QVQLVQSGAEVKKPGASVKVSCKASGYTFTDYSMHWVKQAPGQGLEWMGWISTETGEPTYADDFKGRVTITLDTSASTAYMELSSLRSEDTAVYYCARVRPWYLAVWGQGTLVTVSS VL: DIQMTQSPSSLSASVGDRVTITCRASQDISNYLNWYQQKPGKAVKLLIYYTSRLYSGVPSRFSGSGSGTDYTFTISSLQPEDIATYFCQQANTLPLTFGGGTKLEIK

1. 0.0138 µg/mL
2. 0.0161 µg/mL
3. 0.0131 µg/mL
